The following compounds are shown together with reported growth, % of control at 10 µM values.
# Tested on: SF-295
# METHOD: Antiproliferative activity against human SF295 cells at 10 uM assessed as cell growth inhibition relative to control
# Format: functional
# CONDITION SET: values are per cent of control
Report as a plain number; the unit % is understood.

Some compounds with known growth, % of control at 10 µM results, for comparison:
>>> print(df.to_string())
                                        mol                  quantity_kind  units  measured
0  CCOC(=O)C[C@H]1[C@@H](O[Si](C)(C)C(C)(C)C)[C@H](n2cnc3c(N)ncnc32)O[C@@H]1CNC(=O)NC  growth, % of control at 10 µM      %       101
1  CCOC(=O)C[C@H]1[C@@H](O[Si](C)(C)C(C)(C)C)[C@H](n2cnc3c(N)ncnc32)O[C@@H]1COC(=O)NC  growth, % of control at 10 µM      %        92
2  CCOC(=O)C[C@H]1[C@@H](O[Si](C)(C)C(C)(C)C)[C@H](n2cnc3c(NC(=O)Nc4ccccc4)ncnc32)O[C@@H]1COC(=O)NC  growth, % of control at 10 µM      %        66
3  CCOC(=O)C=C1[C@@H](O[Si](C)(C)C(C)(C)C)[C@H](n2cnc3c(N)ncnc32)O[C@@H]1CNC(=O)NC  growth, % of control at 10 µM      %        88

Query: Enter reported growth, % of control at 10 µM observed with SF-295 for CCOC(=O)C[C@H]1[C@@H](O[Si](C)(C)C(C)(C)C)[C@H](n2cnc3c(N)ncnc32)O[C@@H]1CO
Result: 97

Query: Enter reported growth, % of control at 10 µM observed with SF-295 for CCOC(=O)C[C@H]1[C@@H](O[Si](C)(C)C(C)(C)C)[C@H](n2cnc3c(NC(=O)Nc4ccccc4)ncnc32)O[C@@H]1CN=[N+]=[N-]
Result: 94

Query: Enter reported growth, % of control at 10 µM observed with SF-295 for CNC(=O)NC[C@H]1O[C@@H](n2cnc3c(NC(=O)Nc4ccccc4)ncnc32)[C@H](O[Si](C)(C)C(C)(C)C)[C@@H]1O[Si](C)(C)C(C)(C)C
Result: 45

----------
# Tested on: MCF7
# METHOD: Antiproliferative activity against human MCF7 cells at 10 uM assessed as cell growth inhibition relative to control
# Assay type: functional
# CONDITION SET: values are per cent of control
Simple rule here: growth, % of control at 10 µM less than 90% is Satisfied, otherwise Not satisfied.

See these solved cases before continuing.
>>> df
                                        mol  label_class
0  CNC(=O)NC[C@H]1O[C@@H](n2cnc3c(NC(=O)Nc4ccccc4)ncnc32)[C@H](O[Si](C)(C)C(C)(C)C)[C@@H]1O[Si](C)(C)C(C)(C)C    Satisfied
1  CCOC(=O)C[C@H]1[C@@H](O[Si](C)(C)C(C)(C)C)[C@H](n2cnc3c(NC(=O)Nc4ccccc4)ncnc32)O[C@@H]1COC(=O)NC    Satisfied
2  CCOC(=O)C[C@H]1[C@@H](O[Si](C)(C)C(C)(C)C)[C@H](n2cnc3c(NC(=O)Nc4ccccc4)ncnc32)O[C@@H]1CN=[N+]=[N-]    Satisfied

Query: Determine if CCOC(=O)C[C@H]1[C@@H](O[Si](C)(C)C(C)(C)C)[C@H](n2cnc3c(N)ncnc32)O[C@@H]1COC(=O)NC shows growth, % of control at 10 µM strictly lower than 90%.
Result: Not satisfied

Query: Determine if CCOC(=O)C=C1[C@@H](O[Si](C)(C)C(C)(C)C)[C@H](n2cnc3c(N)ncnc32)O[C@@H]1CNC(=O)NC shows growth, % of control at 10 µM strictly lower than 90%.
Result: Not satisfied
